Source listed as the nanobody polyreactivity screen of Harvey et al. (2022).

# method: yeast display, Sf9 membrane polyspecificity reagent, FACS + sequencing; frameworks hold sequencing errors
experimentalReadout: polyreactivity (PSR sort gate)

>>> result("QVQLVESGGGLVQAGGSLRLSCDASGRIFAGYAMGWYRQAPGKERELVASINWSGGSTYYADSVKGRFTISRDNAKNTVYLQMNSLKPEDTAVYYCAKEPTYRSGEAYVGLYYWGQGTQVTVSS")
"high polyreactivity"
>>> result("PVQLVESGGGLVQAGGSHRVICAASGRIFYVDAMGWSTQAPGKERELVADMSRGGSTNYADSVKGRFTISRDNAKKTVYLQMNRLKPEDTSVYYCNTDGLWSAEYDYWGQGTQVTVSS")
"low polyreactivity"
>>> result("QVQLVESGGGLVQAGGSLRLSCAASGRIFALNVMGWYRQAPGKERELVAAITWSSGRTYYADSVKGRFTISRDNAKNTVYLQMNSLKPEDTAVYYCAAAFRPRAIELSYYYWGQGTQVTVSS")
"high polyreactivity"
>>> result("QVQLVESGGGLVKAGGSLRLSFAASGSIFEPYVMGWYRQAPGKQRELVAAISESGDTTYYADSVKGRFTISRDNAKTTVYLKMNSLKPEDTAVYDCNAEDPSIYGWWRVGEYDYWGQGTQVTVSS")
"low polyreactivity"
>>> result("QVQLVESGGGLVKAGGSLRLSCAASGSTFRYYAMGWYRQAPGKERELVAGITTGGGRTYYADSVKGRFTISRDNAKNTVYLQMNSLKPEDTAVYYCAADRYSHYWYRISYDYWGQGTQVTVSS")
"high polyreactivity"

Short answer for `QVQLVESGGGLVQAGGSLRLSCAASGFIFGSNAMGWYRQAPGKERELVAAISRSGGSTYYADSVKGRFTISRDNAKNTVYLQMNSLKPEHTAVYYCASYLYKSRYLPEYDYWGQGTQVTVSS` : polyreactivity (PSR sort gate) was high polyreactivity

###

# method: yeast display, Sf9 membrane polyspecificity reagent, FACS + sequencing; frameworks hold sequencing errors
experimentalReadout: polyreactivity (PSR sort gate)

Example cases with answers are listed next.
>>> result("QVQLVESGGGLVQAGGSLRLSCAASGFTFHVNTMGWYRQAPGKERELVAAISRSGGSTYYADSVKGRFTISRDNAKNTVYLQMNSLKPEDTAVYYCATPSPGYTYDPRTQEENDYWGQGTQVTVSS")
"low polyreactivity"
>>> result("QVQLVESGGGLVQAGGSLRLSCADSGSTFFRYAMGWYRQAPGKERELVAAISKSGASTYYADSVKGRFTISRDNAKNTVYLQMNSLKPEDTAVYYCNADVKKSSAREWQYGYDYWGQGTQVTVSS")
"low polyreactivity"
>>> result("QVQLVESGGGLVQAGGSLRLSCAASGRIINYNARGWYRQAPGKERELVAAISSSGGSTYYADSVKGRFTISRDNAKNTVYLQMNSLKPEDTAVYYCNALGTTEYWSRDDYWGQGTQVTVSS")
"low polyreactivity"
>>> result("QVQLVESGGGLVQAGGSLRLSCAASGRIFLVYAMGWYRQAPGKERELVATIRSGGRTNYADSVKGRFTISRDNAKNAVYLQMNSLKPEDTAVYYCNAPPYTSSDQDPAGDYEYWGQGTQVTVSS")
"high polyreactivity"

As a next step, examine the sequence that follows.
Given item `QVQLVESGGGLVQAGGSLRLSCAASGRTLGPNPMGWYRPAPGKERELVAAITYNAGSTYYADSVKGRFTISRDNAKNTVYLQMNSLKPEDTAVYYCAARSTQKWTKYYYWGQGTQVTVSS` , the value recorded as its polyreactivity (PSR sort gate) is high polyreactivity
